# Test system: OVCAR8
# Assay Text: drug sensitivity score (DSS2) on cancer cell count; higher = more sensitive; extreme values may be limits of the assay
# Condition Details: co-cultured fibroblast: BJHTERT; 72 h
Measurement Kind: drug sensitivity score (DSS)
Enter your answer as a number in DSS; do not include the unit.

In: // fetch OVCAR8 drug sensitivity score for COc1ccc(COc2cc3oc(=O)c4cc(C(C)O)ccc4c3cc2OC)cc1 (stereo unspecified)
Out: 1.1

In: // fetch OVCAR8 drug sensitivity score for CCN(CC)CCNC(=O)c1c(C)[nH]c(/C=C2\C(=O)Nc3ccc(F)cc32)c1C
Out: 0.7

In: // fetch OVCAR8 drug sensitivity score for C[C@@]1(C(=O)Nc2ccc(F)nc2)CCCN1c1nc(Nc2cc(C3CC3)n[nH]2)c2cccn2n1
Out: 11.6

In: // fetch OVCAR8 drug sensitivity score for CNC(=O)c1ccccc1Nc1nc(Nc2ccc3c(c2OC)CCC[C@H](N2CCN(CCO)CC2)C3)ncc1Cl
Out: 7.3

In: // fetch OVCAR8 drug sensitivity score for CCCOc1ccn2c(C(C)=O)cc(-c3ccccc3S(C)(=O)=O)c2c1
Out: 0

In: // fetch OVCAR8 drug sensitivity score for Nc1ccccc1NC(=O)c1ccc(CNc2nccc(-c3cccnc3)n2)cc1
Out: 14

* * *

Assignment: determine reported drug sensitivity score for the given compounds.
# Test system: KURAMOCHI
# Assay Text: drug sensitivity score (DSS2) on cancer cell count; higher = more sensitive; extreme values may be limits of the assay
# Condition Details: co-cultured fibroblast: WI38; 72 h
Enter your answer as a number in DSS; do not include the unit.

In: Which drug sensitivity score value is on record for CC(=O)Nc1cccc(-n2c(=O)n(C3CC3)c(=O)c3c(Nc4ccc(I)cc4F)n(C)c(=O)c(C)c32)c1 ?
Out: 7.4

In: Which drug sensitivity score value is on record for CC[C@H](C)C(=O)O[C@H]1C[C@H](O)C=C2C=C[C@H](C)[C@H](CC[C@@H](O)C[C@@H](O)CC(=O)O)[C@H]21 ?
Out: 0

In: Which drug sensitivity score value is on record for Cc1[nH]c2ccccc2c1CCNCc1ccc(/C=C/C(=O)NO)cc1 ?
Out: 19.4

In: Which drug sensitivity score value is on record for C[C@]1(O)C[C@@H](c2nc(-c3ccc4ccc(-c5ccccc5)nc4c3)c3c(N)nccn32)C1 ?
Out: 0

In: Which drug sensitivity score value is on record for O=C(c1cccc(Cl)c1F)N1CCN(Cc2cccc(Nc3nccs3)n2)CC1 ?
Out: 14.3

In: Which drug sensitivity score value is on record for Cc1cc(Nc2nc(N[C@@H](C)c3ncc(F)cn3)ncc2Cl)[nH]n1 ?
Out: 0.7

In: Which drug sensitivity score value is on record for Cc1c(C(=O)Nc2ccc(N3C[C@@H](C)O[C@@H](C)C3)nc2)cccc1-c1ccc(OC(F)(F)F)cc1 ?
Out: 0

In: Which drug sensitivity score value is on record for Nc1ccn([C@@H]2O[C@H](CO)[C@@H](O)C2(F)F)c(=O)n1 ?
Out: 25.2

In: Which drug sensitivity score value is on record for CC(C)Oc1ccc(C(=O)N[C@H](CNC(=O)CN(C)C)Cc2ccc(-c3cn4cccc([C@H](C)O)c4n3)cc2)cc1Cl ?
Out: 22.6

In: Which drug sensitivity score value is on record for Cc1nc(C(=O)NCC(=O)O)c(O)c2ccc(Oc3ccccc3)cc12 ?
Out: 0

In: Which drug sensitivity score value is on record for CNC(=O)c1nn(C)c2c1C(C)(C)Cc1cnc(Nc3ccc(N4CCN(C)CC4)cc3)nc1-2 ?
Out: 9.8

In: Which drug sensitivity score value is on record for Nc1nc(Cl)nc2c1ncn2[C@@H]1O[C@H](CO)[C@@H](O)[C@@H]1F ?
Out: 19.7

In: Which drug sensitivity score value is on record for CN(C(=O)c1ccc(F)cc1C(F)(F)F)C1CCN(c2nnc(-c3ccnn3C)c3ccccc23)CC1 ?
Out: 0

In: Which drug sensitivity score value is on record for FC(F)c1nc2ccccc2n1-c1nc(N2CCOCC2)nc(N2CCOCC2)n1 ?
Out: 12.7

In: Which drug sensitivity score value is on record for Nc1ccccc1NC(=O)c1ccc(CNC(=O)OCc2cccnc2)cc1 ?
Out: 14.3

In: Which drug sensitivity score value is on record for C=CC(=O)Nc1cccc(Nc2nc(Nc3ccc(N4CCN(C(C)=O)CC4)cc3OC)ncc2C(F)(F)F)c1 ?
Out: 4.6

In: Which drug sensitivity score value is on record for COc1cc2ncnc(Nc3cccc(Cl)c3F)c2cc1OC(=O)N1CCN(C)C[C@H]1C ?
Out: 0

In: Which drug sensitivity score value is on record for CC(C)C[C@H](NC(=O)CNC(=O)c1cc(Cl)ccc1Cl)B(O)O ?
Out: 11.6

In: Which drug sensitivity score value is on record for O=C(Nc1cccc(Nc2ncc(Br)c(NCCc3cnc[nH]3)n2)c1)N1CCCC1 ?
Out: 9.6

In: Which drug sensitivity score value is on record for N#CCNC(=O)c1ccc(-c2ccnc(Nc3ccc(N4CCOCC4)cc3)n2)cc1 ?
Out: 10.1
